Data provenance: ChEMBL document CHEMBL2029249

I'd appreciate it if you could supply microsomal CLint at 1 µM values for the items below.
Assay comment: Intrinsic clearance in human liver microsomes at 1 uM in presence of NADPH
Format: ADME, Microsome
Test context: read-out: CLH

# count of solved cases: 5
CN(CCCC(=O)NC1CC1)C(=O)c1ccc2c(c1)c1c(n2C)CCC(C2CCOCC2)C1 (stereo unspecified) : 73 µL/min/mg
CN(CCCC(=O)NCCO)C(=O)c1ccc2c(c1)c1c(n2C)CC[C@@H](C2CCOCC2)C1 : 17 µL/min/mg
Cn1c2c(c3cc(C(=O)NCCCC(=O)NC4CC4)ccc31)CC(C1CCOCC1)CC2 (stereo unspecified) : 47 µL/min/mg
CNC(=O)CC[C@@H](CO)N(C)C(=O)c1ccc2c(c1)c1c(n2C)CC[C@@H](C2CCOCC2)C1 : 15 µL/min/mg
CN(CC(=O)NC1CC1)C(=O)c1ccc2c(c1)c1c(n2C)CC[C@H](C2CCOCC2)C1 : 38 µL/min/mg

Required: microsomal CLint at 1 µM, one value per compound below.
1. CN(CC(=O)NC1CC1)C(=O)c1ccc2c(c1)c1c(n2C)CC[C@@H](C2CCOCC2)C1
2. CN(C(=O)c1ccc2c(c1)c1c(n2C)CC[C@@H](C2CCOCC2)C1)[C@H](CO)CCC(=O)NCCF

stdout:
30 µL/min/mg
27 µL/min/mg

Kindly give each listed record's microsomal CLint at 1 µM.
1. CCN(CC(=O)NCCF)C(=O)c1ccc2c(c1)c1c(n2C)CC[C@@H](C2CCOCC2)C1
2. CCN(CCCC(=O)NCCO)C(=O)c1ccc2c(c1)c1c(n2C)CC[C@@H](C2CCOCC2)C1

stdout:
33 µL/min/mg
38 µL/min/mg

List the reported microsomal CLint at 1 µM of each compound below.
1. CN(CCCC(=O)NCCF)C(=O)c1ccc2c(c1)c1c(n2C)CC[C@@H](C2CCOCC2)C1
2. CNC(=O)CCCN(C)C(=O)c1ccc2c(c1)c1c(n2C)CC[C@@H](C2CCOCC2)C1

stdout:
50 µL/min/mg
26 µL/min/mg

----------
Experimental system: Cannabinoid receptor 1 (Homo sapiens, UniProt P21554)
Sequence (P21554 whole entry): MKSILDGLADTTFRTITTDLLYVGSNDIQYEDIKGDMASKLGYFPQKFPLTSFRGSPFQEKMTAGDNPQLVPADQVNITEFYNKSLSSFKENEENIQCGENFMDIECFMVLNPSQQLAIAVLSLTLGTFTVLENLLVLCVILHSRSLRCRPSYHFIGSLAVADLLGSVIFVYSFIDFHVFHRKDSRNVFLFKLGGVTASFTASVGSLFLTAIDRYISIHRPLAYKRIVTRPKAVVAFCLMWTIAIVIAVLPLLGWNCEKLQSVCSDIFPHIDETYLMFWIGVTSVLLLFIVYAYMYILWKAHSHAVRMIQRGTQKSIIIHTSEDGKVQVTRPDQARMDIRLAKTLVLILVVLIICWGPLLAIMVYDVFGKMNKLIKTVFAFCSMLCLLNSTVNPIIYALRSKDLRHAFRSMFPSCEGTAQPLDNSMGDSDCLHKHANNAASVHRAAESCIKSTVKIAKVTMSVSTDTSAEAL
Assay comment: Agonist activity at human CB1 receptor expressed in HEK293 cells assessed as [35S]GTPgamma binding
Hi! Could you tag entries with EC50 below 40 nM as true (1), and those at or above as false (0)? Much appreciated.

Completed entries (count: 3):
CCN(CC(=O)NCCF)C(=O)c1ccc2c(c1)c1c(n2C)CC[C@@H](C2CCOCC2)C1 : true (1)
CCN(CC(=O)NC1CC1)C(=O)c1ccc2c(c1)c1c(n2C)CC[C@H](C2CCOCC2)C1 : true (1)
CN(CC(=O)NC1CC1)C(=O)c1ccc2c(c1)c1c(n2C)CC[C@H](C2CCOCC2)C1 : false (0)

stdin: In the record for CNC(=O)CCCN(C)C(=O)c1ccc2c(c1)c1c(n2C)CC[C@@H](C2CCOCC2)C1 , is EC50 less than 40 nM?
stdout: false (0)

stdin: Threshold test, EC50 < 40 nM: CCN(CCCC(=O)NC1CC1)C(=O)c1ccc2c(c1)c1c(n2C)CCC(C2CCOCC2)C1 (stereo not drawn)
stdout: true (1)

stdin: Strictly below 40 nM in EC50? CN(CCCC(=O)NCCF)C(=O)c1ccc2c(c1)c1c(n2C)CC[C@@H](C2CCOCC2)C1
stdout: true (1)

stdin: Quick check: EC50 of CN(CCCC(=O)NC1COC1)C(=O)c1ccc2c(c1)c1c(n2C)CC[C@@H](C2CCOCC2)C1 under 40 nM?
stdout: false (0)
